System: microorganisms
Assay: Morphology, biofilm and growth disruption by peptides (Table 5)
Format: cell-based
Design: key: A: Peptide aggregates; B: Less hyphal formation; Clumps; Diffuse clumps and small polyps; F: Diffuse growth; H: Thin; I: Growth inhibition; Microcolony formation; Rippled; Small polyps; Thick; W: Halo formation on top, microlonies on bottom
Details: S. pneumoniae
Ends that are not written are not given here.
parameter: Organism, effect (morphology, biofilm and growth disruption)

substance	experimental-result
LGLTAGVAYAAQPTNQPTNQPTNQPTNQPTNQPTNQPRW-NH2 [PF-520]	S. pneumoniae (M)
PF-576 (AYSGELPEPLVRKMSKEQVRSVMGK; Peptide with targeting and/or antimicrobial activity)	S. pneumoniae (C)
PF-589 (APLRIDEIRNSNVIDEVLDCAPKKQEHFFVVPKIIE; Peptide with targeting and/or antimicrobial activity)	S. pneumoniae (C)
SKFKVLRKIIIKEYKGELMLSIQKQR [PF-530]	S. pneumoniae (R)
PF-626 (chain 1 KYDFDDFEPEEA; chain 2 KYDFDDFEPEEA; Peptide with targeting and/or antimicrobial activity)	S. pneumoniae (H)
PF-690 (chain 1 MIPLAGDPVSSHRTVEFGVLGTYLVSGGSL; chain 2 MIPLAGDPVSSHRTVEFGVLGTYLVSGGSL; Peptide with targeting and/or antimicrobial activity)	S. pneumoniae (M)
PF-691 (chain 1 HRTVEFGVLGTYLVSGGSL; chain 2 HRTVEFGVLGTYLVSGGSL; Peptide with targeting and/or antimicrobial activity)	S. pneumoniae (R)
PF-665 (chain 1 VLRVATAVGEVPTGL; chain 2 VLRVATAVGEVPTGL; Peptide with targeting and/or antimicrobial activity)	S. pneumoniae (H)
LHVIRPRPELSELKFPITKILKVNKQGLKK [PF-752]	S. pneumoniae (C)
PF-632 (chain 1 TTIQGVASLEKHGFRYTIIYPTRI; chain 2 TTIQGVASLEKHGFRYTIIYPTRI; Peptide with targeting and/or antimicrobial activity)	S. pneumoniae (M)

###

Tested on: microorganisms
Assay: Morphology, biofilm and growth disruption by peptides (Table 5)
Assay type: cell-based
Design: key: A: Peptide aggregates; B: Less hyphal formation; Clumps; Diffuse clumps and small polyps; F: Diffuse growth; H: Thin; I: Growth inhibition; Microcolony formation; Rippled; Small polyps; Thick; W: Halo formation on top, microlonies on bottom
Details: C. jeikeium

substance	Organism, effect
PF-204 (ALQKQDMNLPSVKNQLVFLKSTG; Peptide with targeting and/or antimicrobial activity)	C. jeikeium (D)
PF-199 (FPAFSFGAIAGSVSVAR; Peptide with targeting and/or antimicrobial activity)	C. jeikeium (R)
PF-203 (SWKCHHLAI; Peptide with targeting and/or antimicrobial activity)	C. jeikeium (R)
PF-001 (chain 1 MNNWIIVAQLSVTVINEIIDIMKEKQKGGK; chain 2 MNNWIIVAQLSVTVINEIIDIMKEKQKGGK; Peptide with targeting and/or antimicrobial activity)	C. jeikeium (D)
PF-133 (GDPTAGQKPVECP; Peptide with targeting and/or antimicrobial activity)	C. jeikeium (R)

###

Test system: microorganisms
Test: Morphology, biofilm and growth disruption by peptides (Table 5)
Format: cell-based
Design: key: A: Peptide aggregates; B: Less hyphal formation; Clumps; Diffuse clumps and small polyps; F: Diffuse growth; H: Thin; I: Growth inhibition; Microcolony formation; Rippled; Small polyps; Thick; W: Halo formation on top, microlonies on bottom
Conditions: S. pneumoniae
parameter: Organism, effect (morphology, biofilm and growth disruption)

>>> print(df.to_string())
                                  substance  experimental_result
0  PF-454 (MSVFVPVTNIFMFIMSPIFNVNLLHFKVYI; Peptide with targeting and/or antimicrobial activity)    S. pneumoniae (R)
1  PF-431 (VAYAAICWW; Peptide with targeting and/or antimicrobial activity)    S. pneumoniae (R)
2  PF-427 (YVLEYHGLRATQDVDAFMAL; Peptide with targeting and/or antimicrobial activity)    S. pneumoniae (R)

###

System: microorganisms
Experiment: Morphology, biofilm and growth disruption by peptides (Table 5)
Format: cell-based
Parameters: key: A: Peptide aggregates; B: Less hyphal formation; Clumps; Diffuse clumps and small polyps; F: Diffuse growth; H: Thin; I: Growth inhibition; Microcolony formation; Rippled; Small polyps; Thick; W: Halo formation on top, microlonies on bottom
Settings: S. epidermidis
Ends that are not written are not given here.
parameter: Organism, effect (morphology, biofilm and growth disruption)

substance	experimental-result
MRFGSLALVAYDSAIKHSWPRPSSVRRLRM [PF-672]	S. epidermidis (I)
PF-447 (IDKSRNKDQFSHIFGLYNICSG; Peptide with targeting and/or antimicrobial activity)	S. epidermidis (C)
PF-543 (NILFGIIGFVVAMTAAVIVTAISIAK; Peptide with targeting and/or antimicrobial activity)	S. epidermidis (D)
PF-622 (chain 1 TREDVFSVRLINNIVNKQA; chain 2 TREDVFSVRLINNIVNKQA; Peptide with targeting and/or antimicrobial activity)	S. epidermidis (D)
PF-422 (MSRKKYENDEKSQKKLKIGRKSDVFYGIID; Peptide with targeting and/or antimicrobial activity)	S. epidermidis (R)
WSRVPGHSDTGWKVWHRW-NH2 [PF-547]	S. epidermidis (R)
PF-536 (MEPIPHIMIIANQIGIIIEKA; Peptide with targeting and/or antimicrobial activity)	S. epidermidis (C)
PF-664 (chain 1 DQLCVEYPARVSTG; chain 2 DQLCVEYPARVSTG; Peptide with targeting and/or antimicrobial activity)	S. epidermidis (M)
PF-746 (chain 1 FLGNSQYFTRK; chain 2 FLGNSQYFTRK; Peptide with targeting and/or antimicrobial activity)	S. epidermidis (C)
PF-605 (HYRWNTQWWKY; Peptide with targeting and/or antimicrobial activity)	S. epidermidis (R)
PF-426 (MLQKYTQMISVTKCIITKNKKTQENVDAYN; Peptide with targeting and/or antimicrobial activity)	S. epidermidis (D)
SKFKVLRKIIIKEYKGELMLSIQKQR [PF-530]	S. epidermidis (H)
EILNNNQVIKELTMKYKTQFESNLGGWTARARR [PF-580]	S. epidermidis (M)
PF-469 (YKVNYNNIDNHFNTLRH; Peptide with targeting and/or antimicrobial activity)	S. epidermidis (D)
PF-595 (LQNKIYELLYIKERSKLCS; Peptide with targeting and/or antimicrobial activity)	S. epidermidis (C)
PF-432 (FNGDSEFFLCIAF; Peptide with targeting and/or antimicrobial activity)	S. epidermidis (M)
YIQFHLNQQPRPKVKKIKIFL-NH2 [PF-531]	S. epidermidis (I)
PF-452 (MNNWIKVAQISVTVINEVIDIMKEKQNGGK; Peptide with targeting and/or antimicrobial activity)	S. epidermidis (C)
PF-612 (GTTLKYGLERQLKIDIHPEITIINLNGGADEFAKL; Peptide with targeting and/or antimicrobial activity)	S. epidermidis (C)
PF-453 (IIQDIAHAFGY; Peptide with targeting and/or antimicrobial activity)	S. epidermidis (C)
PF-614 (GLDIYA; Peptide with targeting and/or antimicrobial activity)	S. epidermidis (M)
PF-690 (chain 1 MIPLAGDPVSSHRTVEFGVLGTYLVSGGSL; chain 2 MIPLAGDPVSSHRTVEFGVLGTYLVSGGSL; Peptide with targeting and/or antimicrobial activity)	S. epidermidis (R)
KTPNDKIHKTIIIKHIIL [PF-533]	S. epidermidis (H)

###

System: microorganisms
Assay: Morphology, biofilm and growth disruption by peptides (Table 5)
Format: cell-based
Parameters: key: A: Peptide aggregates; B: Less hyphal formation; Clumps; Diffuse clumps and small polyps; F: Diffuse growth; H: Thin; I: Growth inhibition; Microcolony formation; Rippled; Small polyps; Thick; W: Halo formation on top, microlonies on bottom
Details: C. jeikeium
parameter: Organism, effect

                                   substance  experimental_result
 0  PF-012 (WRGPNTEAGGKSANNIVQVGGAPT; Peptide with targeting and/or antimicrobial activity)      C. jeikeium (A)
 1  PF-037 (MTKKRRYDTTEFGLAHSMTAKITLHQALYK; Peptide with targeting and/or antimicrobial activity)      C. jeikeium (D)
 2  PF-057 (TMIVISIPRFEEYMKARHKKWM; Peptide with targeting and/or antimicrobial activity)      C. jeikeium (A)
 3  PF-153 (GILARADCSQIA; Peptide with targeting and/or antimicrobial activity)      C. jeikeium (C)
 4  PF-065 (LEKNTRDNYFIHAIDRIYINTSKGLFPESELVAWG; Peptide with targeting and/or antimicrobial activity)      C. jeikeium (A)
 5  PF-145 (GIVLTGRAGLVSGACSMALGVGLG; Peptide with targeting and/or antimicrobial activity)      C. jeikeium (R)
 6  PF-022 (MINELKNKNSGIMNNYVVTKESKL; Peptide with targeting and/or antimicrobial activity)      C. jeikeium (A)
 7  PF-068 (SHLINNFGLSVINPSTPICLNFSPVFNLLTVYGITCN; Peptide with targeting and/or antimicrobial activity)      C. jeikeium (R)
 8  PF-036 (ILNRLSRIVSNEVTSLIYSLK; Peptide with targeting and/or antimicrobial activity)      C. jeikeium (A)
 9  PF-073 (CPSVTMDACALLQKFDFCNNISHFRHFFAIKQPIER; Peptide with targeting and/or antimicrobial activity)      C. jeikeium (D)
10  PF-052 (QELINEAVNLLVKSK; Peptide with targeting and/or antimicrobial activity)      C. jeikeium (D)
11  PF-099 (EIIAYLEGRFANA; Peptide with targeting and/or antimicrobial activity)      C. jeikeium (C)
12  PF-196 (TTARYIRRQCHTSITPLSQG; Peptide with targeting and/or antimicrobial activity)      C. jeikeium (R)
13  PF-127 (MLRYLSLFAVGLATGYAWGWIDGLAASLAV; Peptide with targeting and/or antimicrobial activity)      C. jeikeium (A)
14  PF-021 (FSLNFSKQKYVTVN; Peptide with targeting and/or antimicrobial activity)      C. jeikeium (R)
15  PF-063 (IAAIIVLVLFQKGLLQIFNWILIQLQ; Peptide with targeting and/or antimicrobial activity)      C. jeikeium (D)
